Cited source: patent US11702475B2

protocolDetails: Thermal stability of cysteine-NEM conjugates by DSC
Type: physicochemical
conditionDescription: second identical scan

molecule	Second Scan Tm [°C]
D15C: cysteine variant of P54AR4-83v2 (SEQ ID NOS: 193 and 231); NEM and VC-MMAF conjugates (conjugate, NEM or vcMMAF conjugate; EGFR binding FN3 domain, NEM and VC-MMAF conjugates) MLPAPKNLVVSEVTECSARLSWDDPWAFYESFLIQYQESEKVGEAIVLTVPGSERSYDLTGLKPGTEYTVSIYGVHNVYKDTNMRGLPLSAIFTT	73
P50C (conjugate, left off: small tags and cut ends) LPAPKNLVVSEVTEDSARLSWDDPWAFYESFLIQYQESEKVGEAIVLTVCGSERSYDLTGLKPGTEYTVSIYGVHNVYKDTNMRGLPLSAIFTT	65
I45C: cysteine variant of P54AR4-83v2 (SEQ ID NOS: 201 and 239); NEM and VC-MMAF conjugates (conjugate, NEM or vcMMAF conjugate; EGFR binding FN3 domain, NEM and VC-MMAF conjugates) MLPAPKNLVVSEVTEDSARLSWDDPWAFYESFLIQYQESEKVGEACVLTVPGSERSYDLTGLKPGTEYTVSIYGVHNVYKDTNMRGLPLSAIFTT	68
E53C: cysteine variant of P54AR4-83v2 (SEQ ID NOS: 204 and 242); NEM and VC-MMAF conjugates (conjugate, NEM or vcMMAF conjugate; EGFR binding FN3 domain, NEM and VC-MMAF conjugates) MLPAPKNLVVSEVTEDSARLSWDDPWAFYESFLIQYQESEKVGEAIVLTVPGSCRSYDLTGLKPGTEYTVSIYGVHNVYKDTNMRGLPLSAIFTT	75
E11C: cysteine variant of P54AR4-83v2 (SEQ ID NOS: 191 and 229); NEM and VC-MMAF conjugates (conjugate, NEM or vcMMAF conjugate; EGFR binding FN3 domain, NEM and VC-MMAF conjugates) MLPAPKNLVVSCVTEDSARLSWDDPWAFYESFLIQYQESEKVGEAIVLTVPGSERSYDLTGLKPGTEYTVSIYGVHNVYKDTNMRGLPLSAIFTT	72
S70C: cysteine variant of P54AR4-83v2 (SEQ ID NOS: 211 and 249); NEM and VC-MMAF conjugates (conjugate, NEM or vcMMAF conjugate; EGFR binding FN3 domain, NEM and VC-MMAF conjugates) MLPAPKNLVVSEVTEDSARLSWDDPWAFYESFLIQYQESEKVGEAIVLTVPGSERSYDLTGLKPGTEYTVCIYGVHNVYKDTNMRGLPLSAIFTT	72
